Tested on: S. cerevisiae BY4741 (wild-type), vegetative growth in YPD
protocol_notes: growth sensitivity score (doubling time z-score vs DMSO controls); higher = slower growth, strongly negative scores also mark growth inhibition (complete suppression), active = hit call of the paper
Where a name gives a salt, the structure may show the parent alone.
recorded_endpoint: growth sensitivity score
Numbers only.

C[C@@H]1C[C@H]2[C@@H]3C[C@H](F)C4=CC(=O)C(Cl)=C[C@]4(C)[C@@]3(F)[C@@H](O)C[C@]2(C)[C@@]1(O)C(=O)CO [Halometasone monohydrate] (stock concentration (mM, diluted 1:100): 10)	-0.26

Dear colleague, could you please provide growth sensitivity score for the compounds listed below?
1. CC(C)(C)NC(=O)[C@@H]1C[C@@H]2CCCC[C@@H]2CN1C[C@@H](O)[C@H](Cc1ccccc1)NC(=O)[C@H](CC(N)=O)NC(=O)c1ccc2ccccc2n1 [Saquinavir mesylate] (stock concentration (mM, diluted 1:100): 8.8)
2. NC(=O)OCC(COC(N)=O)c1ccccc1 [Felbamate] (stock concentration (mM, diluted 1:100): 14)

*A*
2.5
-0.94

*Q* Given C=CC1=C(C(=O)O)N2C(=O)[C@@H](NC(=O)/C(=N\O)c3csc(N)n3)[C@H]2SC1 [Cefdinir] (stock concentration (mM, diluted 1:100): 10) , respond with its growth sensitivity score.
*A* -0.67
